src = paper PMC10322703

- assayed-system: SNV Gn^H, recombinant histidine-tagged N-terminal ectodomain region (head domain) of Sin Nombre viru (Sin Nombre virus, UniProt Q89905)
- experimental-protocol: BLI
- condition-description: both partners purified
Field: kon. Provide a value for each of the binders that follow.
Supply the numeric figure in M⁻¹ s⁻¹, leaving out any unit text.

Request: I'd like to know its kon. The binder in question is SNV-42^GR, germline-revertant form of SNV-42 (IgG1) (antibody, V domains shown) VH: EVQLVESGGGLVQPGGSLRLSCAASGFTFSSYEMNWVRQAPGKGLEWVSYISSSGSTIYYADSVKGRFTISRDNAKNSLYLQMNSLRAEDTAVYYCARIPGGYSGYFDYWGQGTLVTVSS VL: QSVLTQPPSVSGAPGQRVTISCTGSSSNIGAGYDVHWYQQLPGTAPKLLIYGNSNRPSGVPDRFSGSKSGTSASLAITGLQAEDEADYYCQSYDSSLSGWVFGGGTKLTVL
Result: 514000

Request: I'd like to know its kon. The binder in question is SNV-42 F(ab')2 (other) chain 1: EVQLVESGGGLVQPGGSLRLSCAASGFTFSTYEMNWVRQAPGKGLEWVSYIRSSGSTVYYADSVKGRFTISRDNAKNLLYLQMNSLRAGDTAVYYCARIPGGYTGYFDYWGQGALVTVSS chain 2: QSVLTQPPSVSGAPGQRVTISCTGSSSNIGAGYYVHWYQQLPGTVPKLLIYGNNNRPSGVPDRFSGSKSGTSASLAITGLQTEDEADYYCQSYDSSLSGWVFGGGTKLTVL
Result: 61400

Request: I'd like to know its kon. The binder in question is SNV-42, human monoclonal antibody (IgG1) (antibody, V domains shown) VH: EVQLVESGGGLVQPGGSLRLSCAASGFTFSTYEMNWVRQAPGKGLEWVSYIRSSGSTVYYADSVKGRFTISRDNAKNLLYLQMNSLRAGDTAVYYCARIPGGYTGYFDYWGQGALVTVSS VL: QSVLTQPPSVSGAPGQRVTISCTGSSSNIGAGYYVHWYQQLPGTVPKLLIYGNNNRPSGVPDRFSGSKSGTSASLAITGLQTEDEADYYCQSYDSSLSGWVFGGGTKLTVL
Result: 132000

Request: I'd like to know its kon. The binder in question is SNV-42 Fab (Fab, V domains shown) VH: EVQLVESGGGLVQPGGSLRLSCAASGFTFSTYEMNWVRQAPGKGLEWVSYIRSSGSTVYYADSVKGRFTISRDNAKNLLYLQMNSLRAGDTAVYYCARIPGGYTGYFDYWGQGALVTVSS VL: QSVLTQPPSVSGAPGQRVTISCTGSSSNIGAGYYVHWYQQLPGTVPKLLIYGNNNRPSGVPDRFSGSKSGTSASLAITGLQTEDEADYYCQSYDSSLSGWVFGGGTKLTVL
Result: 139000
